Value source: PubChem BioAssay (NCATS)

Molecular target: Glutathione peroxidase 1 (Homo sapiens) (UniProt P07203)
Sequence (P07203 whole entry, looked up): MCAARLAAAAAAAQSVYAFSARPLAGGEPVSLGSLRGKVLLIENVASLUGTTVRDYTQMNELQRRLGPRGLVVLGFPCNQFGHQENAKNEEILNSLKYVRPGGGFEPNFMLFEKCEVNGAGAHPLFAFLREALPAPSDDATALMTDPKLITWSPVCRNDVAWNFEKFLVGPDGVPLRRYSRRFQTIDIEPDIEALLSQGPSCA
Assay: Primary qHTS Assay for Inhibitors of Recombinant Selenoprotein Glutathione Peroxidase 1 (GPX1) (AID 1845191); also: nearly all actives have a fitted effect of over 65% in size
Conditions: recombinant GPX1, GR-coupled NADPH fluorescence, 15 min; series mostly up to 48.8 µM
Records with an inconclusive call do not appear. Active and inactive are the calls of the source. Calls follow the shape of the dose curve; as a rule, active = well fitted inhibition curve with a large enough effect; inconclusive = small, poorly fitted or top-dose-only effect; inactive = flat fitted curve, though single readings scatter.
Outcomes: active, inactive

- C=C1CC(=O)C2OC2(C)CC2OC(=O)C(=C)C2C(O)C1OC(=O)/C(C)=C\C (stereo not given): inactive
- CCC(C)C(=O)Oc1cc(C)ccc1C1(COC(=O)C(C)C)CO1 (stereo not given): inactive
- Cc1cc(C(C)Nc2ccccc2C(=O)O)c2nc(N3CCOCC3)cc(=O)n2c1 (stereo not given): inactive
- COc1cc(C(=O)NCC2(N(C)C)CCCC2)cc(OC)c1OCc1ccccc1: inactive
- C#CCNCc1cc2cc(OCc3ccccc3)ccc2[nH]1: inactive
- C=C1C(=O)O[C@@H]2C(OC(=O)/C(C)=C\C)/C(C)=C\C(=O)/C=C(\C)C[C@H](O)[C@@H]12 (stereo not given in full): inactive
- C=C1C(=O)O[C@@H]2C[C@@]3(C)CCCC(=C)[C@]3(O)C[C@H]12: inactive
- C=C1C(=O)O[C@H]2CC(=C)[C@H]3CC[C@@](C)(O)[C@@H]3CC12 (stereo not given in full): inactive
- Nc1c(S(=O)(=O)c2ccccc2)c2nc3ccccc3nc2n1-c1ccc(F)cc1: active
- O=C1C(c2[nH]c3ccc(S(=O)(=O)O)cc3c2O)=Nc2ccc(S(=O)(=O)O)cc21: inactive
- CN[C@H]1CC[C@@H](c2ccc(Cl)c(Cl)c2)c2ccccc21: inactive
- C=C1C(=O)O[C@@H]2/C=C(\C)CC/C=C(\C)CC[C@@H]12: inactive
- Cc1c(OCc2cccc(-c3ccc(C(=O)O)cc3)c2)cc2c(c1C)C(=O)C(C1CCCC1)C2 (stereo not given): inactive
- C=C1[C@@H](OC(C)=O)CC[C@@]2(C)[C@@H](OC(C)=O)[C@H](OC(C)=O)C3=C(C)C[C@H](OC(=O)C(C)CC)[C@@H]([C@@H](OC(C)=O)[C@H]12)C3(C)C (stereo not given in full): inactive
- CC#CCC(C)[C@H](O)/C=C/[C@@H]1[C@H]2C/C(=C/CCCC(=O)O)C[C@H]2C[C@H]1O (stereo not given in full): inactive
- C=C[C@H](/C=C\c1ccc(O)cc1)c1ccc(O)cc1: inactive
- O=C(Nc1ccc(Cl)cc1)Nc1cccc(-c2cccc(N3CCCC3)n2)c1: inactive
- CC1CC(=O)C2=C(C1)C1OC1C1(O)C2C(=O)c2cccc(O)c2C1O (stereo not given): inactive
- Cc1cc2ncc(C(=O)NCC(C)(C)NCC(=O)N3CCC[C@H]3C#N)cn2n1: inactive
- C=C1C(=O)OC2CC3(C)C(O)C(=O)C=C(C)C3CC12 (stereo not given): inactive

* * *

Test system: NIH3T3
Experiment: Cytotoxic Profiling of Annotated Libraries Using Quantitative High-Throughput Screening (AID 1296008); also: nearly all actives have a fitted effect of over 60% in size
Settings: Five cell lines viability, CellTiter-Glo ATP luminescence, 48-72 h
Inconclusive results are not listed. Calls of active or inactive are those of the source. The call rests on the fitted dose curve; in most records, active means well fitted inhibition curve with a large enough effect; inconclusive means small, poorly fitted or top-dose-only effect; inactive means flat fitted curve, though single readings scatter.
Outcomes: true (1) = active, false (0) = inactive

• O=C(c1ccccn1)N(Cc1cccs1)C1(C(=O)NC2CCCCC2)CCCCC1 = false (0)
• CC(=O)OC(C)(C)/C=C/C(=O)C(C)(O)C1C(O)CC2(C)C3CC=C(C(C)(C)C(=O)O)C(CC(=O)O)C3(C)C(=O)CC12C (stereo not given) = false (0)
• C=C1C(=O)O[C@@H]2[C@H]1CC(=O)[C@H](C)[C@@](O)(C(=O)/C=C/C)[C@H]2OC(=O)C(C)CC (stereo not given in full) = true (1)
• C=CC(=O)N1CCC(Oc2cc3c(Nc4ccc(Cl)c(Cl)c4F)ncnc3cc2OC)CC1 = true (1)
• COc1cc(O)c2c(c1)/C=C/C[C@H](O)[C@H](O)C(=O)/C=C\C[C@H](C)OC2=O = true (1)
